Data credit: paper PMC12332667

tested on: K. pneumoniae ATCC 700603; experiment: MIC/MBC broth microdilution, K. pneumoniae; assay type: cell-based; settings: water additive EtOH
value-type: MIC (µg/mL)
// return numeric value only (unit: µg/mL, not printed)

Sample CC(C)[C@@H](CNC(=O)C(=Cc1ccccc1)c1ccccc1)NC(=O)[C@H](CCCNC(=N)N)NC(=O)[C@H](CCCCN)NC(=O)OCc1ccccc1 , system: K. pneumoniae ATCC 700603. Its MIC is 512

Sample CC[C@@H](CNC(=O)/C=C/c1ccccc1)NC(=O)[C@H](CC(C)C)NC(=O)[C@H](CCCNC(=N)N)NC(=O)OCc1ccccc1 , system: K. pneumoniae ATCC 700603. Its MIC is 512

====

tested on: S. agalactiae ATCC 27956; assay: MIC/MBC broth microdilution, S. agalactiae; format: cell-based, Streptococcus agalactiae; settings: S. agalactiae, water additive EtOH
Non-standard residues stand in square brackets, D forms with d. Residues, ends and D or L forms follow the SMILES beside them. *: point of attachment. NHPhenethyl = c1ccc(CCN*)cc1; β3hV = CC(C)[C@H](N)CC(=O)O; Cbz = O=C(OCc1ccccc1)*
value-type: MBC (µg/mL)
// return numeric value only (unit: µg/mL, not printed)

MBC reading for CC(C)C[C@H](NC(=O)[C@H](CCCNC(=N)N)NC(=O)OCc1ccccc1)C(=O)N[C@H](CNC(=O)C(=Cc1ccccc1)c1ccccc1)C(C)C : 8

MBC reading for CC(C)C[C@H](NC(=O)[C@H](CCCNC(=N)N)NC(=O)OCc1ccccc1)C(=O)N[C@H](CC(=O)NCCc1ccccc1)C(C)C [Compound A-152] (Cbz-Arg-Leu-[β3hV]-NHPhenethyl) : 256

MBC reading for CC(C)[C@@H](CNC(=O)/C=C/c1ccccc1)NC(=O)[C@H](Cc1c[nH]cn1)NC(=O)[C@H](CCCCN)NC(=O)OCc1ccccc1 : 512

====

Tested on: E. faecalis c.i.
Test: MIC/MBC broth microdilution, E. faecalis
Assay type: cell-based, Enterococcus faecalis
Details: water additive EtOH
Description: S. aureus (ATCC 29213),S. pyogenes (ATCC 19615),Streptococcus agalactiae (ATCC 27956),Escherichia coli (ATCC 25922),Proteus vulgaris (ATCC 6896),K. pneumoniae (ATCC 700603) andP. aeruginosa (ATCC 10145) reference strains, as well asStaphylococcus cohnii, Enterococcus faecalis, Staphylococcus schleiferi, Staphylococcus intermedius and Streptococcus mutans clinical isolates, were used to test the antibacterial activity of the peptidomimetics. […]
value-type: MBC (µg/mL)
// return numeric value only (unit: µg/mL, not printed)

MBC reading for CC(C)C[C@H](NC(=O)[C@H](CCCCNC(=N)N)NC(=O)OCc1ccccc1)C(=O)N[C@H](CNC(=O)/C=C/c1ccccc1)C(C)C [Compound A-134] : 512

MBC reading for CC(C)[C@@H](CNC(=O)C(=Cc1ccccc1)c1ccccc1)NC(=O)[C@H](Cc1c[nH]cn1)NC(=O)[C@H](CCCNC(=N)N)NC(=O)OCc1ccccc1 [Compound A-176] : 512

MBC reading for CC(C)[C@@H](CNC(=O)C(=Cc1ccccc1)c1ccccc1)NC(=O)[C@H](CCCNC(=N)N)NC(=O)[C@H](CCCNC(=N)N)NC(=O)OCc1ccccc1 [Compound A-179] : 256
